# Subject of test: UniProtKB Q08369
# Sequence (Q08369 whole entry): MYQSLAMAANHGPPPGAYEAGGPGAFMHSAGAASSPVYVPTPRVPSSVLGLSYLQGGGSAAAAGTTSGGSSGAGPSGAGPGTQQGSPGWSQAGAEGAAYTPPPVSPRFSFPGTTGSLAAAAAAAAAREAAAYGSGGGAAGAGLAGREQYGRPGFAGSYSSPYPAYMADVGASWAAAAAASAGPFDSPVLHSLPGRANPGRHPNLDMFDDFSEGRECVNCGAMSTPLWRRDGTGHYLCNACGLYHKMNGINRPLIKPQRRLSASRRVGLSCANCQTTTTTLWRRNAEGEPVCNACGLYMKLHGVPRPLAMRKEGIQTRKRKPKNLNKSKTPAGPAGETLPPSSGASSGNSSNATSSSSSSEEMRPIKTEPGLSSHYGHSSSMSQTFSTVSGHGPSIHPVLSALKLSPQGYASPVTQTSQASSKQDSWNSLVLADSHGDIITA
# Measurement description: Modulation of mouse GATA4 expressed in Chlorocebus aethiops COS1 cells harboring NP-112 reporter gene assessed as BNP promoter-driven transcriptional activity at 10 uM after 24 hrs by luciferase reporter gene assay relative to control
# Format: cell-based
Reported property: Activity (%)

// known answers, use as guide
[[record]]
smiles_string = "CCN(CC)c1ccc(NC(=O)c2c(-c3ccc(F)cc3)noc2C)cc1"
measured_value = 79

[[record]]
smiles_string = "Cc1onc(-c2ccccc2)c1C(=O)Nc1nc(C(C)(C)C)cs1"
measured_value = 110

[[record]]
smiles_string = "CCN(CC)c1ccc(NC(=O)c2c(-c3cc(C)on3)noc2C)cc1"
measured_value = 100

[[record]]
smiles_string = "CCN(CC)c1ccc(NC(=O)c2c(-n3cccc3)sc(C)c2C)cc1"
measured_value = 66

[[record]]
smiles_string = "Cc1onc(-c2ccccc2)c1C(=O)Nc1ccc(-c2ccccc2)cc1"
measured_value = 110


A: CCN(CC)c1ccc(NC(=O)c2c(C)noc2-c2snnc2C)cc1
B: CCN(CC)c1ccc(NC(=O)c2c(-c3ccoc3)noc2C)cc1
*Q* Of A versus B , which is the one with smaller reported Activity? Lab log: write the label of the selected item as the result.
*A* A
(A: 68%, B: 99%)

P: C=CCN(Cc1ccc(N(CC)CC)cc1)c1c(-c2ccccc2)noc1C
Q: CCN(CC)c1ccc(NC(=O)c2cc(C)oc2-c2ccccc2)cc1
*Q* Of P versus Q , which is the one with smaller reported Activity? Lab log: write the label of the selected item as the result.
*A* Q

1: Cc1onc(-c2ccccc2)c1C(=O)Nc1ccc2oc(-c3ccccc3)cc(=O)c2c1
2: CCN(CC)c1ccc(NC(=O)c2cc(C)sc2-c2cc(C)on2)cc1
*Q* Of 1 versus 2 , which is the one with smaller reported Activity? Lab log: write the label of the selected item as the result.
*A* 1

A: CCN(CC)c1ccc(CNc2c(-c3ccccc3)noc2C)cc1
B: CCN(CC)c1ccc(NC(=O)c2snnc2-c2ccccc2)cc1
*Q* Which record would sort first by descending Activity, A or B ? Lab log: write the label of the selected item as the result.
*A* A

1: CCN(CC)c1ccc(NC(=O)c2csc(C)c2-c2ccccc2)cc1
2: Cc1onc(-c2ccccc2)c1C(=O)Nc1ccc(C(=O)OCCCCC#N)cc1
*Q* Which record would sort first by descending Activity, 1 or 2 ? Lab log: write the label of the selected item as the result.
*A* 2
(2: 100%, 1: 58%)

* * *

# Subject of test: GATA4/NKX2-5 (Mus musculus) (UniProt Q08369+P42582)
# Measurement description: Modulation of mouse GATA4/mouse NKX2-5 protein-protein interaction expressed in Chlorocebus aethiops COS1 cells harboring 3xHA reporter gene assessed as transcriptional synergy at 10 uM after 24 hrs by luciferase reporter gene assay relative to control
# Type: cell-based
Reported property: Activity (%)

[[record]]
compound = "Cc1onc(-c2ccccc2)c1COc1ccc(C(=O)N(C)CCCO)cc1"
subject_of_test = "GATA4/NKX2-5 (Mus musculus) (UniProt Q08369+P42582)"
reported_property = "Activity"
measured_value = 100


a: CCN(CC)c1ccc(N(CCF)C(=O)c2c(-c3ccccc3)noc2C)cc1
b: CCN(CC)c1ccc(NC(=O)c2snnc2-c2ccccc2)cc1
c: CCN(CC)c1ccc(NC(=O)c2ncoc2-c2ccco2)cc1
*Q* Sort these compounds on Activity so the largest reading comes first. Response format: the labels, sorted as the prompt asks.
*A* c, a, b

P: CCN(CC)c1ccc(NC(=O)C2CCCC2)cc1
Q: CCN(CC)c1ccc(NC(=O)c2cc(C)oc2-c2ccccc2)cc1
*Q* Of P versus Q , which is the one with smaller reported Activity? Lab log: write the label of the selected item as the result.
*A* Q
